System: human Factor 7 mRNA
assay-text: Dose-dependent antisense inhibition of human Factor 7 in HepB3 cells, transfection with electroporation
Type: cell-based
measurement-context: 6.25 μM, 16 hours (Example 8, Table 16)
In the oligonucleotide strings, read from the 5' end, every base follows the letter of its sugar. An asterisk marks phosphorothioate; unmarked linkages are phosphodiester. Other units and linkages are bracketed, terminal groups are in braces. A string of capitals states the bases alone. e = 2'-O-(2-methoxyethyl) (MOE); [5mC] = 5-methylcytosine; d = 2'-deoxy (DNA)
Please go through the items and note down their percent inhibition of Factor 7 mRNA, relative to untreated control cells.
Answers are plain numbers, in %.

>>> quantitative_readout("407935 (antisense eA*eT*eG*e[5mC]*eA*dT*dG*dG*dT*dG*dA*dT*dG*d[5mC]*dT*eT*e[5mC]*eT*eG*eA) [compound 407935]")
79
>>> quantitative_readout("422087 (antisense e[5mC]*eA*eT*eG*e[5mC]*dA*dT*dG*dG*dT*dG*dA*dT*dG*d[5mC]*eT*eT*e[5mC]*eT*eG) [compound 422087]")
38
>>> quantitative_readout("422183 (antisense eG*e[5mC]*eG*d[5mC]*d[5mC]*dA*d[5mC]*d[5mC]*d[5mC]*dG*d[5mC]*d[5mC]*dG*dG*d[5mC]*dT*d[5mC]*eT*eG*e[5mC]) [compound 422183]")
3
>>> quantitative_readout("422229 (antisense eA*eT*dG*d[5mC]*dA*dT*dG*dG*dT*dG*dA*dT*dG*d[5mC]*dT*eT*e[5mC]*eT*eG*eA) [compound 422229]")
45
>>> quantitative_readout("422292 (antisense eG*eT*dT*d[5mC]*dT*dG*d[5mC]*dA*dG*dG*dA*dG*d[5mC]*dG*dG*e[5mC]*e[5mC]*eT*eA*eA) [compound 422292]")
40
>>> quantitative_readout("422130 (antisense eG*e[5mC]*e[5mC]*eT*eG*dA*dG*dG*d[5mC]*d[5mC]*dA*dG*d[5mC]*dA*dG*eA*eT*e[5mC]*eA*e[5mC]) [compound 422130]")
24

For every record below, what is its percent inhibition of Factor 7 mRNA, relative to untreated control cells?
1. 422150 (antisense eG*e[5mC]*eA*dT*dG*dG*dT*dG*dA*dT*dG*d[5mC]*dT*dT*d[5mC]*dT*dG*eA*eA*eT) [compound 422150]
2. 422296 (antisense e[5mC]*e[5mC]*dG*dA*dG*dT*dT*d[5mC]*dT*dG*d[5mC]*dA*dG*dG*dA*eG*e[5mC]*eG*eG*e[5mC]) [compound 422296]
3. 422086 (antisense eT*eG*e[5mC]*eA*eT*dG*dG*dT*dG*dA*dT*dG*d[5mC]*dT*dT*e[5mC]*eT*eG*eA*eA) [compound 422086]
4. 422142 (antisense eG*eA*eG*eT*eT*d[5mC]*dT*dG*d[5mC]*dA*dG*dG*dA*dG*d[5mC]*eG*eG*e[5mC]*e[5mC]*eT) [compound 422142]
5. 407939 (antisense eT*eG*e[5mC]*eA*eG*d[5mC]*d[5mC]*d[5mC]*dG*dG*d[5mC]*dA*d[5mC]*d[5mC]*d[5mC]*eA*eG*e[5mC]*eG*eA) [compound 407939]

[31, 44, 48, 47, 60]
